# Test system: 699152-130-R-J1-PDC complex spheroid growth
# measurement_description: Anticancer human tumor 699152-130-R-J1-PDC patient-derived pancreatic carcinoma cell line growth inhibition [AhR]
# condition_summary: curve of first compound; second compound 10 µM
measurement_type: IC50

compound	measurement_type	result
O=C(C=Cn1cnc(-c2cc(C(F)(F)F)cc(C(F)(F)F)c2)n1)NNc1cnccn1 + Cc1cncc(-c2nc(NCCc3c[nH]c4ccccc34)c3ncn(C(C)C)c3n2)c1	IC50	< 0.00949 µM
COc1ccc([C@@H](O)c2cc(-c3ncnc4cc(N5CCOCC5)ccc34)c(F)cc2Cl)nn1 + Cc1cncc(-c2nc(NCCc3c[nH]c4ccccc34)c3ncn(C(C)C)c3n2)c1	IC50	< 0.0316 µM
CC(C)CC(NC(=O)C(Cc1ccccc1)NC(=O)c1cnccn1)B(O)O (stereo unspecified) + Cc1cncc(-c2nc(NCCc3c[nH]c4ccccc34)c3ncn(C(C)C)c3n2)c1	IC50	< 0.000949 µM
NS(=O)(=O)OCC1CC(n2ccc3c(NC4CCc5ccccc54)ncnc32)CC1O (stereo unspecified) + Cc1cncc(-c2nc(NCCc3c[nH]c4ccccc34)c3ncn(C(C)C)c3n2)c1	IC50	< 0.0316 µM
CCN(c1cc(-c2ccc(CN3CCOCC3)cc2)cc(C(=O)NCc2c(C)cc(C)[nH]c2=O)c1C)C1CCOCC1 + CC(CO)NC(=O)c1cc(-c2ccc(Cl)cc2)nn(-c2cnn(C)c2)c1=O	IC50	> 3 µM
O=C(c1cc(Cc2n[nH]c(=O)c3ccccc23)ccc1F)N1CCN(C(=O)C2CC2)CC1 + CC(CO)NC(=O)c1cc(-c2ccc(Cl)cc2)nn(-c2cnn(C)c2)c1=O	IC50	> 10 µM

----------
Below is a list of entries, each paired with its recorded viability, T/C value.
# Test system: 699152-130-R-J1-PDC complex spheroid growth
# measurement_description: Anticancer human tumor 699152-130-R-J1-PDC cell line growth inhibition [AhR];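 further: compound exposure lasted 7 days after spheroids had grown for 3 days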
# condition_summary: second compound 1 µM; first compound 0.003 µM; stronger effect = lower value
# Excerpt: Multicellular complex tumor spheroid response to aryl hydrocarbon receptor antagonists in combination with a variety of drugs and investigational agents in selected tumor cell lines […] Compounds. […] If the clinical Cmax for an agent had not been determined, the highest concentration tested was 10 microM (Table 1). […]

molecule	readout_units	viability, T/C
CCc1c2c(nc3ccc(O)cc13)-c1cc3c(c(=O)n1C2)COC(=O)[C@]3(O)CC + CC(CO)NC(=O)c1cc(-c2ccc(Cl)cc2)nn(-c2cnn(C)c2)c1=O	%	75.4
CC(C)CC(NC(=O)C(Cc1ccccc1)NC(=O)c1cnccn1)B(O)O (centres undefined) + CC(CO)NC(=O)c1cc(-c2ccc(Cl)cc2)nn(-c2cnn(C)c2)c1=O	%	86.1
CC(C)CC(NC(=O)C(Cc1ccccc1)NC(=O)c1cnccn1)B(O)O (centres undefined) + Cc1cncc(-c2nc(NCCc3c[nH]c4ccccc34)c3ncn(C(C)C)c3n2)c1	%	111
CCc1c2c(nc3ccc(O)cc13)-c1cc3c(c(=O)n1C2)COC(=O)[C@]3(O)CC + Cc1cncc(-c2nc(NCCc3c[nH]c4ccccc34)c3ncn(C(C)C)c3n2)c1	%	94.2
Nc1ncn(C2CC(O)C(CO)S2)c(=O)n1 (centres undefined) + Cc1cncc(-c2nc(NCCc3c[nH]c4ccccc34)c3ncn(C(C)C)c3n2)c1	%	110
Nc1ncn(C2CC(O)C(CO)S2)c(=O)n1 (centres undefined) + Cc1ccccc1N=Nc1ccc(NC(=O)c2ccnn2C)c(C)c1	%	101
CC(C)CC(NC(=O)C(Cc1ccccc1)NC(=O)c1cnccn1)B(O)O (centres undefined) + Cc1ccccc1N=Nc1ccc(NC(=O)c2ccnn2C)c(C)c1	%	96.8
CCc1c2c(nc3ccc(O)cc13)-c1cc3c(c(=O)n1C2)COC(=O)[C@]3(O)CC + Cc1ccccc1N=Nc1ccc(NC(=O)c2ccnn2C)c(C)c1	%	78.2
Nc1ncn(C2CC(O)C(CO)S2)c(=O)n1 (centres undefined) + CC(CO)NC(=O)c1cc(-c2ccc(Cl)cc2)nn(-c2cnn(C)c2)c1=O	%	101
